- System: liver cancer HepG2 cells
- procedure_text: MTT cell growth and proliferation experiment, HepG2
- Type: cell-based
- Design: key: (control OD570 − test OD570)/control OD570, as fraction
- cond: HepG2, MTT, 10 ug/ml, 3 d, solvent ethanol; fraction
- Experimental: 1.1 Reagents 12 retinoic acid derivatives with the final concentrations of 1 ug/ml, 5 ug/ml and 10 ug/ml are synthesized by the Pharmaceutical College of Anhui Medical University using DMSO and anhydrous ethanol, separately packaged for storage at −20° C. and kept out of the light when used, and the final concentration of DMSO is less than 0.1%. MTT is purchased from Sigma Corp. The Coulter DNA detection kit is presented by the Central Lab of Anhui Provincial Hospital. […]
reported_metric: Inhibition Rate
Enter a number only.

Here is how some compounds turned out for Inhibition Rate.
CC1=C(/C=C/C(C)=C/C=C/C(C)=C/C(=O)Oc2cccc(OC(F)(F)F)c2)C(C)(C)CCC1; 0.35
CC1=C(/C=C/C(C)=C/C=C/C(C)=C/C(=O)Oc2ccc(C(F)(F)F)cc2)C(C)(C)CCC1; 0.24
CC1=C(/C=C/C(C)=C/C=C/C(C)=C/C(=O)Oc2ccc(OC(F)(F)F)cc2)C(C)(C)CCC1; 0.12

Now for another entry.
Prompt: Item CC1=C(/C=C/C(C)=C/C=C/C(C)=C/C(=O)Oc2cccc(C(F)(F)F)c2)C(C)(C)CCC1 has what recorded Inhibition Rate?
Completion: 0.45

---

- Tested on: A549 lung cancer cells
- procedure_text: MTT cell growth and proliferation experiment, A549
- Assay type: cell-based
- Set-up: key: (control OD570 − test OD570)/control OD570, as fraction
- cond: A549, MTT time gradient, 10 ug/ml, 7 d; fraction
reported_metric: Inhibition Rate
Lab note: jot the number down without any unit.

Would you please look over these solved cases?
CC1=C(/C=C/C(C)=C/C=C/C(C)=C/C(=O)Nc2cccc(C(F)(F)F)c2)C(C)(C)CCC1; 0.949
CC1=C(/C=C/C(C)=C/C=C/C(C)=C/C(=O)Nc2ccc(OC(F)(F)F)cc2)C(C)(C)CCC1; 0.401

Prompt: # input compound: CC1=C(/C=C/C(C)=C/C=C/C(C)=C/C(=O)Nc2cccc(OC(F)(F)F)c2)C(C)(C)CCC1 ; wanted: its Inhibition Rate
Completion: 0.679

Prompt: Quick check: Inhibition Rate of CC1=C(/C=C/C(C)=C/C=C/C(C)=C/C(=O)Oc2ccc(N)cc2C(F)(F)F)C(C)(C)CCC1 ?
Completion: 0.448

Prompt: Can you look up the measured Inhibition Rate of CC1=C(/C=C/C(C)=C/C=C/C(C)=C/C(=O)Oc2ccccc2C(F)(F)F)C(C)(C)CCC1 for me?
Completion: 0.328

Prompt: State the recorded Inhibition Rate for this entry: CC1=C(/C=C/C(C)=C/C=C/C(C)=C/C(=O)Nc2ccc(C(F)(F)F)cc2)C(C)(C)CCC1
Completion: 0.361

---

- System: A549 lung cancer cells
- procedure_text: MTT cell growth and proliferation experiment, A549
- Assay type: cell-based
- cond: A549, MTT time gradient, 10 ug/ml, 7 d
Outcome: Criterion met for OD Value (x ± s) of at least 1; Criterion not met for anything lower.

Recorded results for 5 compounds are shown here.
CC1=C(/C=C/C(C)=C/C=C/C(C)=C/C(=O)Nc2ccc(OC(F)(F)F)cc2)C(C)(C)CCC1; Criterion met
CC1=C(/C=C/C(C)=C/C=C/C(C)=C/C(=O)Nc2cccc(C(F)(F)F)c2)C(C)(C)CCC1; Criterion not met
CC1=C(/C=C/C(C)=C/C=C/C(C)=C/C(=O)Oc2ccc(N)cc2C(F)(F)F)C(C)(C)CCC1; Criterion met
CC1=C(/C=C/C(C)=C/C=C/C(C)=C/C(=O)Nc2ccc(C(F)(F)F)cc2)C(C)(C)CCC1; Criterion met
CC1=C(/C=C/C(C)=C/C=C/C(C)=C/C(=O)Nc2cccc(OC(F)(F)F)c2)C(C)(C)CCC1; Criterion not met

Prompt: API: above_or_equal(metric=OD Value (x ± s), cutoff=1) for item CC1=C(/C=C/C(C)=C/C=C/C(C)=C/C(=O)Oc2ccccc2C(F)(F)F)C(C)(C)CCC1
Completion: Criterion met
